- Tested on: SF-295
- Experimental Protocol: NCI tumour cell line growth inhibition, 48 h
The source made the active and inactive calls. Cut-off read from the data, not from the text of the source: active = GI50 up to about 1.1 µM and inactive = higher.
Result Type: GI50

Q. Value wanted: GI50 (SF-295) of entry "N#CC(C#N)=NNc1ccc2cn[nH]c2c1"
A. > 100 µM (inactive)

Q. Could you share what GI50 was measured for CCC1CCc2c(c(=O)oc3c2cc(OC)c2cccc(OC)c23)C1 (configuration not stated) , tested on SF-295?
A. 32.6 µM (inactive)

Q. What reported GI50 corresponds to "COc1ccc2[nH]c3c(C)cc([N+](=O)[O-])c(C)c3c2c1" on SF-295?
A. 41.4 µM (inactive)

Q. Give recorded GI50 with SF-295 for the following molecule: "Cc1cccc(C)c1NC(=O)CCC(=O)NNc1nnc(C)n1N"
A. > 100 µM (inactive)

Q. Recorded GI50 for "O=C(Nc1ccn(CCO)c(=O)n1)c1ccccc1" with SF-295, please?
A. > 100 µM (inactive)

Q. Provide value of GI50 for this record tested with SF-295: OCC(O)C(Cl)CCl (configuration not stated)
A. > 100 µM (inactive)

Q. Can you look up GI50 on SF-295 for "CCN1C(NN)=NS(=O)(=O)c2ccccc21" ?
A. > 100 µM (inactive)

Data origin: ChEMBL document CHEMBL1201862
